Values from patent US11161819B2

- measured_target: human GPR120 (Homo sapiens)
- assay_notes: Human GPR120 IP1 Assay (inositol phosphate turnover, CisBio IP-One kit)
- measurement_parameters: IP1 accumulation in CHO-K1 cells stably expressing the short form of human GPR120; 60 min compound incubation; 4-parameter fit; read-out: hGPR120 EC50
assay_endpoint: EC50 (nM)

[[record]]
compound = "Cc1cc(-c2cscn2)nc(N2CCc3c(ccc(CCC(=O)O)c3F)C2)c1C#N"
recorded_number = 141


A = N#Cc1ccc(OC2CCC2)cc1N1CCc2c(ccc(CCC(=O)O)c2F)C1
B = O=C(O)CCc1cc2c(cc1F)CN(c1cc(OC3CCC3)cc(F)c1F)CC2
C = Cc1ccc(-n2nc(C)c(C#N)c2N2CCc3cc(C(C)CCCC(=O)O)ccc3C2)cc1 (single isomer, unassigned) [Example 142]
Request: Sort the compounds on EC50; start with the lowest figure. Returns: the labels arranged in the requested order.
Response: B, C, A

====

- measured_target: human GPR120 (Homo sapiens)
- assay_notes: Human GPR120 IP1 Assay (inositol phosphate turnover, CisBio IP-One kit)
- measurement_parameters: IP1 accumulation in CHO-K1 cells stably expressing the short form of human GPR120; 60 min compound incubation; 4-parameter fit; read-out: hGPR120 EC50
assay_endpoint: EC50 (nM)

Use the examples below as a reference point.
[[record]]
compound = "O=C(O)CCc1ccc2c(c1F)CCN(c1cc(CC3CCC3)ccc1F)C2"
measured_target = "human GPR120 (Homo sapiens)"
assay_endpoint = "EC50"
recorded_number = 60

[[record]]
compound = "O=C(O)CCc1ccc2c(c1)CCN(c1cc(OC(F)(F)F)ccc1F)C2"
measured_target = "human GPR120 (Homo sapiens)"
assay_endpoint = "EC50"
recorded_number = 61

[[record]]
compound = "O=C(O)CCc1ccc2c(c1)CCN(c1cccc(SC3CCC3)n1)C2"
measured_target = "human GPR120 (Homo sapiens)"
assay_endpoint = "EC50"
recorded_number = 405


I = CC(Cc1ccc2c(c1F)CCN(c1cc(OC3CCC3)cc(F)c1C#N)C2)C(=O)O (stereo not drawn)
II = O=C(O)[C@@H]1C[C@H]1c1ccc2c(c1)CCN(c1cc(OC3CCC3)cc(Cl)c1F)C2
III = N#Cc1ccc(OC(F)(F)F)cc1N1CCc2c(ccc([C@H]3C[C@@H]3C(=O)O)c2F)C1
Request: Sort these compounds on EC50 so the largest reading comes first. Returns: the labels arranged in the requested order.
Response: I, III, II

====

- measured_target: human GPR120 (Homo sapiens, UniProt Q5NUL3)
- Sequence (Q5NUL3 1-361): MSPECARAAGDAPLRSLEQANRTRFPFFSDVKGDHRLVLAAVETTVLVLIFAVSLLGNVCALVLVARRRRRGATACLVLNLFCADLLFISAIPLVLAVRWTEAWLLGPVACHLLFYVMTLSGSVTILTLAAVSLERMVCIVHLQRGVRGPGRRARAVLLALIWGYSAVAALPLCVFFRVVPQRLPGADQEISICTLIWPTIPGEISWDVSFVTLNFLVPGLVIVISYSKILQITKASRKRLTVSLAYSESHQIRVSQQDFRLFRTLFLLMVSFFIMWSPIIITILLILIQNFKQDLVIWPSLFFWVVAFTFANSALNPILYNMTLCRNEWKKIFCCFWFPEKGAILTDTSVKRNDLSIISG
- assay_notes: Human GPR120 IP1 Assay (inositol phosphate turnover, CisBio IP-One kit)
- measurement_parameters: IP1 accumulation in CHO-K1 cells stably expressing the short form of human GPR120; 60 min compound incubation; 4-parameter fit; read-out: hGPR120 EC50
assay_endpoint: EC50 (nM)

Use the examples below as a reference point.
[[record]]
molecule = "O=C(O)CCc1ccc2c(c1)CCN(c1cc(OC3CCC3)cc(F)c1F)C2 [Example 11]"
reading_unit = "nM"
recorded_number = 15

[[record]]
molecule = "O=C(O)CCc1ccc2c(c1)CCN(c1cc(OC(F)(F)F)cc(Cl)c1F)C2 [Example 15]"
reading_unit = "nM"
recorded_number = 22

[[record]]
molecule = "Cc1ccc(-n2nc(C)c(C#N)c2N2CCc3cc(OCCO)ccc3C2)cc1 [Example 130]"
reading_unit = "nM"
recorded_number = 87

[[record]]
molecule = "N#Cc1cc(OC2CCC2)cc(N2CCc3cc(CCC(=O)O)ccc3C2)c1F [Example 12]"
reading_unit = "nM"
recorded_number = 24

[[record]]
molecule = "O=C(O)CCc1ccc2c(c1F)CCN(c1cc(OC3CCC3)ccc1F)C2 [Example 61]"
reading_unit = "nM"
recorded_number = 28

[[record]]
molecule = "O=C(O)C1CC1c1ccc2c(c1)CCN(c1cc(OC(F)(F)F)cc(Cl)c1F)C2 (stereo not drawn) [Example 105]"
reading_unit = "nM"
recorded_number = 6610

[[record]]
molecule = "C[C@H]1C[C@H](Oc2cc(F)c(F)c(N3CCc4c(ccc([C@@H]5C[C@H]5C(=O)O)c4F)C3)c2)C1 [Example 112]"
reading_unit = "nM"
recorded_number = 42

[[record]]
molecule = "CC(Cc1ccc2c(c1F)CCN(c1cc(OC(F)(F)F)ccc1F)C2)C(=O)O (stereo not drawn) [Example 77]"
reading_unit = "nM"
recorded_number = 5880


1 = O=C(O)CCc1ccc2c(c1)CCN(Cc1c(-c3ccc(Cl)cc3)nsc1C(F)(F)F)C2 [Example 50]
2 = O=C(O)CCc1ccc2c(c1)CCN(c1nc(OC3CCC3)ccc1F)C2 [Example 5]
Request: Hey, which is lower on measured EC50, 1 or 2 ? # answer = label of selected item
Response: 2

====

- measured_target: human GPR120 (Homo sapiens, UniProt Q5NUL3)
- assay_notes: Human GPR120 IP1 Assay (inositol phosphate turnover, CisBio IP-One kit)
- measurement_parameters: IP1 accumulation in CHO-K1 cells stably expressing the short form of human GPR120; 60 min compound incubation; 4-parameter fit; read-out: hGPR120 EC50
assay_endpoint: EC50 (nM)

Use the examples below as a reference point.
[[record]]
compound = "CO[C@H]1C[C@H](Oc2cc(C#N)c(F)c(N3CCc4cc([C@@H]5C[C@H]5C(=O)O)ccc4C3)c2)C1 [Example 89]"
measured_target = "human GPR120 (Homo sapiens, UniProt Q5NUL3)"
reading_unit = "nM"
recorded_number = 185

[[record]]
compound = "N#Cc1cc(OC(F)(F)F)cc(N2CCc3c(ccc([C@@H]4C[C@H]4C(=O)O)c3F)C2)c1F [Example 109]"
measured_target = "human GPR120 (Homo sapiens, UniProt Q5NUL3)"
reading_unit = "nM"
recorded_number = 22

[[record]]
compound = "Cc1ccc(-n2nc(C)c(F)c2N2CCc3cc(C4CC4C(=O)O)ccc3C2)cc1 (centres unmarked) [Example 94]"
measured_target = "human GPR120 (Homo sapiens, UniProt Q5NUL3)"
reading_unit = "nM"
recorded_number = 473


a = O=C(O)CCc1ccc2c(c1)CCN(c1cc(OC3CCC3)ccc1F)C2 [Example 19]
b = Cc1ccc(-n2nc(C)c(C#N)c2N2CCc3cc(OCCCCO)ccc3C2)cc1 [Example 139]
Request: Hey, which is lower on measured EC50, a or b ? # answer = label of selected item
Response: a

====

- measured_target: UniProt:Q5NUL3
- assay_notes: Human GPR120 IP1 Assay (inositol phosphate turnover, CisBio IP-One kit)
- measurement_parameters: IP1 accumulation in CHO-K1 cells stably expressing the short form of human GPR120; 60 min compound incubation; 4-parameter fit; read-out: hGPR120 EC50
pEC50: −log10 of the molar value.
assay_endpoint: pEC50

[[record]]
molecule = "Cc1cc2c(c(F)c1CCC(=O)O)CCN(c1cc(OC(F)(F)F)ccc1F)C2 [Example 58]"
assay_endpoint = "pEC50"
recorded_number = 6.33


P = CO[C@H]1C[C@H](Oc2cc(F)c(C#N)c(N3CCc4cc([C@@H]5C[C@H]5C(=O)O)ccc4C3)c2)C1 [Example 103]
Q = COc1cc(OC2CCC2)nc(N2CCc3c(ccc(CCC(=O)O)c3F)C2)c1F [Example 148]
R = O=C(O)[C@@H]1C[C@H]1c1ccc2c(c1)CCN(c1cc(OC(F)(F)F)ccc1F)C2 [Example 87]
Request: Sort the molecules on pEC50; start with the lowest figure. Returns: the labels arranged in the requested order.
Response: P, R, Q

====

- measured_target: UniProt Q5NUL3
- assay_notes: Human GPR120 IP1 Assay (inositol phosphate turnover, CisBio IP-One kit)
- measurement_parameters: IP1 accumulation in CHO-K1 cells stably expressing the short form of human GPR120; 60 min compound incubation; 4-parameter fit; read-out: hGPR120 EC50
assay_endpoint: EC50 (nM)

Use the examples below as a reference point.
[[record]]
compound = "CO[C@H]1C[C@H](Oc2cc(F)c(F)c(N3CCc4c(ccc([C@H]5C[C@@H]5C(=O)O)c4F)C3)c2)C1 [Example 106]"
recorded_number = 83

[[record]]
compound = "COc1cc(OC(F)(F)F)cc(N2CCc3cc(CCC(=O)O)ccc3C2)c1F [Example 13]"
recorded_number = 18

[[record]]
compound = "COc1cc(Oc2ncc(C)s2)cc(N2CCc3cc(CCC(=O)O)ccc3C2)c1F [Example 17]"
recorded_number = 23


I = C[C@H]1C[C@H](Oc2cc(F)c(F)c(N3CCc4c(ccc([C@H]5C[C@@H]5C(=O)O)c4F)C3)c2)C1 [Example 108]
II = Cc1ccc(-n2nc(C)c(C#N)c2N2CCc3cc(OCCCO)ccc3C2)cc1 [Example 144]
III = CC(CC(=O)O)c1ccc2c(c1)CCN(c1cc(OC(F)(F)F)ccc1F)C2 (single isomer, unassigned) [Example 8]
Request: Sort the compounds on EC50; start with the lowest figure. Returns: the labels arranged in the requested order.
Response: I, III, II
(I: 122 nM, III: 414 nM, II: 4300 nM)
